System: B cell line, TNFa signaling counterscreen reporter
protocol text: TNFa signaling inhibitors in B cell line, dose response, counter-screen (AID 1259334);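 also: cells stimulated with TNFa after compound preincubation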
Calls of active or inactive are those of the source. Rule as the data show it: active = AC50 below about 11 µM.
Catalogue of AC50 readings, one per entry.

COc1ccc(S(=O)(=O)N(C)C[C@H]2Oc3ccc(NC(=O)Nc4ccc(C(F)(F)F)cc4)cc3C(=O)N([C@H](C)CO)C[C@H]2C)cc1    8.38 µM
CN(C)c1ccc(C(=C2C=CC(=[N+](C)C)C=C2)c2ccc(N(C)C)cc2)cc1    0.099 µM
NC(=NCCCCCCN=C(N)/N=C(\N)Nc1ccc(Cl)cc1)/N=C(\N)Nc1ccc(Cl)cc1    10.5 µM
CO[C@@H](CN(C)S(=O)(=O)c1ccc(Cl)cc1)[C@H](C)CN(Cc1ccccc1Cl)[C@@H](C)CO    > 20 µM (inactive)
CCCCCCCCCc1ccc(OCCOCCOCCOCCOCCOCCOCCOCCOCCO)cc1    4.58 µM

Please give the measured AC50 for this compound: CCCNC(=O)c1cc2c(c(-c3cccc(-c4cc5ccccc5o4)c3)n1)[C@H](CCO)N(C(=O)NC(C)C)C2
> 20 µM (inactive)

Sample Clc1ccc(CSC(Cn2ccnc2)c2ccc(Cl)cc2Cl)cc1 (centres undefined) — what was its AC50?
> 20 µM (inactive)

What value of AC50 has been recorded for this entry: CC(C)(C)CC(C)(C)c1ccc(OCCOCC[N+](C)(C)Cc2ccccc2)cc1
1.75 µM

// lookup AC50 for c1ccc(-c2ccc(-c3ccccn3)nn2)nc1
6.99 µM

Origin of measurements: PubChem BioAssay AID1259334
